Source of measurements: patent US10138235B2

ENDPOINT_LABEL: melting point (°C)
Answers are plain numbers, in °C.

Example compounds with recorded melting point:
                                     smiles  endpoint_label  measure_unit  quantitative_readout
0  Cn1nc(-c2ccccc2)c2c(C(F)(F)F)cc(-c3ccc(N)c(C#N)c3)nc21   melting point            °C                   269
1  CN(C)c1ccc(-c2cc(C(F)(F)F)c3c(-c4ccccc4)n[nH]c3n2)cc1   melting point            °C                   227
2  Cn1ncc2c(C(F)(F)F)cc(-c3ccc(N)c(C#N)c3)nc21   melting point            °C                   276
3  Cn1nc2nc(-c3ccc(N)c(C#N)c3)cc(C(F)(F)F)c2c1-c1ccccc1   melting point            °C                   295
4  Cn1ncc2c(C(F)F)cc(-c3ccc(N)c(C#N)c3)nc21   melting point            °C                   251

For every item below, please supply its melting point.
1. N#Cc1cc(-c2cc(C(F)F)c3c(-c4cccnc4)n[nH]c3n2)ccc1N
2. N#Cc1cc(-c2cc(C(F)F)c3cn[nH]c3n2)ccc1N
3. Cn1cc2c(C(F)(F)F)cc(-c3ccc(N)c(C#N)c3)nc2n1

Result:
296
263
249
